biological target: Ylr278c (UniProt Q05854); experiment: PBM E-score (8-mer binding enrichment) (E-score (-0.5 to 0.5)); higher = stronger / more preferred TF binding; settings: protein concentration: 200 nM; construct: GST-DNA-binding domain
Sequence (Q05854 whole entry, the tested form may be a part): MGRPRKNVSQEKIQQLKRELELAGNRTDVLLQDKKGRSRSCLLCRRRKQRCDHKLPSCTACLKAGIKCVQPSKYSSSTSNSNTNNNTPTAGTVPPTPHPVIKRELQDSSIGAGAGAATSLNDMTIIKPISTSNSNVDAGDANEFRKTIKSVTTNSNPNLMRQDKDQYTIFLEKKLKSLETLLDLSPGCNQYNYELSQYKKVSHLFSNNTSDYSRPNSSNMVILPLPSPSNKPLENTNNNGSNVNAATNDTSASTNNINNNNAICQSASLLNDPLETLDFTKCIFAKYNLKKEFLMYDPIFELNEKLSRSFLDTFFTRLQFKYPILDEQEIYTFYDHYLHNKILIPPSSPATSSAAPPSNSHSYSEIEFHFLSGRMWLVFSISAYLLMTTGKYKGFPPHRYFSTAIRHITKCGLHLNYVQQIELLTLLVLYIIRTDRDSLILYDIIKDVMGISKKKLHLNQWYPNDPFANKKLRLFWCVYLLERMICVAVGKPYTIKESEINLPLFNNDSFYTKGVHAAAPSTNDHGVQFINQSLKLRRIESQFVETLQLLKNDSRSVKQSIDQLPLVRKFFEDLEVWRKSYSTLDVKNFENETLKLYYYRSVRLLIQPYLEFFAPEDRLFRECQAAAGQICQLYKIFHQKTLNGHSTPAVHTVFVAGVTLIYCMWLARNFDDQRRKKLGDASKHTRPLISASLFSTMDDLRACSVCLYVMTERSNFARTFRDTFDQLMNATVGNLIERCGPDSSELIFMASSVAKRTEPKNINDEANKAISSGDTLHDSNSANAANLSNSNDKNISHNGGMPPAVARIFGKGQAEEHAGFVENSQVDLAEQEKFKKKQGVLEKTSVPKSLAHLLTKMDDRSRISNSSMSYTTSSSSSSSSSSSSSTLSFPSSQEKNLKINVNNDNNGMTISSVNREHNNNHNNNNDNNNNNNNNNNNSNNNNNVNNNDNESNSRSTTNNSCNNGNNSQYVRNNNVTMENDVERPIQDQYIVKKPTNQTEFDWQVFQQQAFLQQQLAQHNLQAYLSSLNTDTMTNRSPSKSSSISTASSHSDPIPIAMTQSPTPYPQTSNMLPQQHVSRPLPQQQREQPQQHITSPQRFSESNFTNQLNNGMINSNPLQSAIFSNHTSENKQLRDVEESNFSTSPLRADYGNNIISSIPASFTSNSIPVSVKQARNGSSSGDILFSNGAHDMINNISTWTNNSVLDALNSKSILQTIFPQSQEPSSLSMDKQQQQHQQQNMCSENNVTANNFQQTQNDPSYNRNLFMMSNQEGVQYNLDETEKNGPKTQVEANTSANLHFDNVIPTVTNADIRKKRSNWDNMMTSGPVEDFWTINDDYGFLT
In all, about 33,000 sequences were measured (“E-score (-0.5 to 0.5)”: median about -0.054, highest 2% from about 0.39 on). This is one part of a sample in which the highest values are shown more often than they occur.
Where PBM E-score equals or exceeds 0.2, the correct label is True; where it does not, the label is False.

Would you please look over these solved cases?
Q: Decide: is the reported value of PBM E-score for TAATCCGA equal to or greater than 0.2?
Ans: True

Q: Decide: is the reported value of PBM E-score for ACAGCAGC equal to or greater than 0.2?
Ans: False

Q: Decide: is the reported value of PBM E-score for GAGCGCGC equal to or greater than 0.2?
Ans: False

Q: Decide: is the reported value of PBM E-score for AAATCCGT equal to or greater than 0.2?
Ans: True

Q: Decide: is the reported value of PBM E-score for AAACCCCC equal to or greater than 0.2?
Ans: False

Next:
Q: Decide: is the reported value of PBM E-score for ACCCCCGC equal to or greater than 0.2?
Ans: True

Q: Decide: is the reported value of PBM E-score for CAATCCCG equal to or greater than 0.2?
Ans: True
